# credit: patent US20150306086A1

target: TRKA (Homo sapiens, UniProt P04629); test: Off-chip mobility shift kinase assay, TRKA; format: biochemical; conditions: CSKtide 1000 nM, ATP 75 μM, Mg 5 mM
Sequence (P04629 33-796): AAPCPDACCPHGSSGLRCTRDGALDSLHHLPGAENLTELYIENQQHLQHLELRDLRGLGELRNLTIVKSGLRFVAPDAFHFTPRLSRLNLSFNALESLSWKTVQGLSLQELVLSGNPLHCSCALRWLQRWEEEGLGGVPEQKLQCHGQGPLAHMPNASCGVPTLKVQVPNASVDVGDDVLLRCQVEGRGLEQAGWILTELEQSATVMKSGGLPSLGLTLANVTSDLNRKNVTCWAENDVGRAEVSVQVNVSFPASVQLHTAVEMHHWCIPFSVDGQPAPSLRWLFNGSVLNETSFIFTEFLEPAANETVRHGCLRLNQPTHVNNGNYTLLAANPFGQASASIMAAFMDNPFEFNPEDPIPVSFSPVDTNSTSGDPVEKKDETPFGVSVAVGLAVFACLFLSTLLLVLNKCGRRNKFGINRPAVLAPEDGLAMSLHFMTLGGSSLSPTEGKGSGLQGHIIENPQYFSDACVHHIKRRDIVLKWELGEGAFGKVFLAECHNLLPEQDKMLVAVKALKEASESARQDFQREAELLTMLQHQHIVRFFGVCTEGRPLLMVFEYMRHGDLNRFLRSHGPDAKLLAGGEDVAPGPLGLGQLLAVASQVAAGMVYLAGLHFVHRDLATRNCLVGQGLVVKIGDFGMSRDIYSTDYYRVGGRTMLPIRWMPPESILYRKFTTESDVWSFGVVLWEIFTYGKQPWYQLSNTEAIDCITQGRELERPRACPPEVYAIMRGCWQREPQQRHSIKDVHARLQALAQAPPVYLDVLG
pIC50: −log10 of the molar value.
value_type: pIC50

Query: Looking for the measured pIC50 of CC(C)NC(=O)[C@H]1CC[C@@H](n2/c(=N/C(=O)c3cc(F)cc(F)c3)[nH]c3ccc(CN4CCC(C(C)(C)O)CC4)cc32)CC1 , can you help?
Reply: 7.00 to 9.00

* * *

value_type: IC50

Query: Request: IC50, test system TRKB (Homo sapiens), entry CC(C)NC(=O)[C@H]1CC[C@@H](n2/c(=N/C(=O)c3ccc(F)cc3)[nH]c3ccc(CN4CCC(C(C)(C)O)CC4)cc32)CC1
Reply: 1 to 100 nM
